Assay: Clearance in rat at 2 mg/kg, iv
Type: ADME, organism-based
Set-up: dose 2 mg/kg, route intravenous
Settings: in vivo
VALUE_KIND: clearance (mL/min/kg)

[a] CN1CCN(c2ccc(Nc3ncc4c(=O)c(C(N)=O)cn(-c5ccc6c(c5)CCC6)c4n3)cc2)CC1
[b] CN1CCN(Cc2ccc(Nc3ncc4c(=O)c(C(N)=O)cn(-c5ccc6c(c5)CCC6)c4n3)cc2)CC1
Prompt: Which has the higher clearance, a or b ? Kindly state the label of the option you pick.
Completion: a
(a: 133 mL/min/kg, b: 29 mL/min/kg)

====

Molecular target: Macrophage colony-stimulating factor 1 receptor (Homo sapiens)
Sequence (P07333 whole entry): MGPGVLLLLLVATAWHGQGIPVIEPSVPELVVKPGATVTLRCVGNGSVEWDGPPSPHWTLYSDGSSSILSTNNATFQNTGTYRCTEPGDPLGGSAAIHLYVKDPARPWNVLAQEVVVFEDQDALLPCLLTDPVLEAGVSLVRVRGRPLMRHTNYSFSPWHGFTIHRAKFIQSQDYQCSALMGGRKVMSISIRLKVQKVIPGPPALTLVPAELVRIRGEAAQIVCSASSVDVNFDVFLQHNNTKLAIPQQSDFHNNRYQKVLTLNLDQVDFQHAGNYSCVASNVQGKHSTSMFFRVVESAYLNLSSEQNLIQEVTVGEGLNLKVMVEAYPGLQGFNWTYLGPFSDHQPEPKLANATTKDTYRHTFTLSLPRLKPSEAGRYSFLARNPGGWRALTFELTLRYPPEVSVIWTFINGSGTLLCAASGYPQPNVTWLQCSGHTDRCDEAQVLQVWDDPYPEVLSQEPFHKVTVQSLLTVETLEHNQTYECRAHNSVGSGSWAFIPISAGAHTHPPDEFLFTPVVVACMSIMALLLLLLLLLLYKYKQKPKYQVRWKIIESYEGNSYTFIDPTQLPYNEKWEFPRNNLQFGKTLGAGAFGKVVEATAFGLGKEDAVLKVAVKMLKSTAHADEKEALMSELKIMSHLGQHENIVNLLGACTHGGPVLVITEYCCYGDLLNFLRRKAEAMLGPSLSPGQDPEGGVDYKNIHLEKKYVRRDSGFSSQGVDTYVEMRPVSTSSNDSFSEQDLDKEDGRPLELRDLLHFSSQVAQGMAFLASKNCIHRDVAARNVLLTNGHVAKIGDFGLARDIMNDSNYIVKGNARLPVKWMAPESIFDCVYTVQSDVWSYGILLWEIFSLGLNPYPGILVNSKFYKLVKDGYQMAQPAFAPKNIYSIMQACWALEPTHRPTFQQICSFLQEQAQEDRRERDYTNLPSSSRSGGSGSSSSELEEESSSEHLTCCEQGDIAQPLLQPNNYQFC
Assay: Inhibition of CSF1R
VALUE_KIND: IC50 (nM)
Number only, in nM; omit the unit.

# MOLECULE, IC50 (nM)
measured = [
    ("CCOC(=O)c1nc2cnc(Nc3ccccc3)nc2n(-c2ccccc2)c1=O [PTERIDINONE]", 180),
]

IC50 recorded for this molecule, CN1CCN(c2ccc(Nc3ncc4c(=O)c(C(N)=O)cn(-c5ccc6c(c5)CCC6)c4n3)cc2)CC1 , is 13

====

Target: Mast/stem cell growth factor receptor Kit (Homo sapiens, UniProt P10721)
Sequence (P10721 whole entry): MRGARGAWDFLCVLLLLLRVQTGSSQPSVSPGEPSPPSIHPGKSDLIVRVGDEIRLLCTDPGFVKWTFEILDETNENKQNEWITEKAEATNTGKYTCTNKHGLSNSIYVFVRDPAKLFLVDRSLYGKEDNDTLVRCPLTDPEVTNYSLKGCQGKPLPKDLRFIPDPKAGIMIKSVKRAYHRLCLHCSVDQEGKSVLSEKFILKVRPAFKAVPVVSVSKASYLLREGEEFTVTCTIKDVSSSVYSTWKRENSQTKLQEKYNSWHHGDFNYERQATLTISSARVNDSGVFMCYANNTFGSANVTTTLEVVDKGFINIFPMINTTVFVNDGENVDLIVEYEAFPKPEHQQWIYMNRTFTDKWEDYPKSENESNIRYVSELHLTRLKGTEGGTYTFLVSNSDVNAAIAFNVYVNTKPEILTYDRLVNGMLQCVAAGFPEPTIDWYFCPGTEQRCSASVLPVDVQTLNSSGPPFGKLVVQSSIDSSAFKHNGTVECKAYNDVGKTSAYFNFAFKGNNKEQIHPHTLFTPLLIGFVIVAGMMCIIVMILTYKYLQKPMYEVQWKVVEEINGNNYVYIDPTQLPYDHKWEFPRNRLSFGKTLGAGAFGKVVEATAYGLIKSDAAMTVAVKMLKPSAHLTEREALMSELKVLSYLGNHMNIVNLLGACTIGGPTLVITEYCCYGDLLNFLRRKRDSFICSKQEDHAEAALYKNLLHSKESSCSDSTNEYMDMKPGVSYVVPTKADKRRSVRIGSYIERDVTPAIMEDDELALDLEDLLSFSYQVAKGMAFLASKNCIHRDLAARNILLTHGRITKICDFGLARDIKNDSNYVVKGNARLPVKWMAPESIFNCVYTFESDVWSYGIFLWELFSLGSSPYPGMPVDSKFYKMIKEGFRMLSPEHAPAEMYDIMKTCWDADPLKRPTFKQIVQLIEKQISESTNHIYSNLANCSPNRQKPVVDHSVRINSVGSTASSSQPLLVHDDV
VALUE_KIND: pIC50
Expect pIC50 as a plain number equal to -log10 of the molar concentration.

Fill in: Mast/stem cell growth factor receptor Kit (Homo sapiens, UniProt P10721) pIC50 for CN1CCN(Cc2ccc(Nc3ncc4c(=O)c(C(N)=O)cn(-c5ccc6c(c5)CCC6)c4n3)cc2)CC1 = 7.55

====

Test: Metabolic stability in rat liver microsomes after 10 mins
Assay type: ADME, Microsome
Settings: read-out: Stability
VALUE_KIND: remaining at 10 min (%)

# SMILES_NOTATION, VALUE_OBSERVED
rows = [
    ("CN1CCN(c2ccc(Nc3ncc4c(=O)c(C(N)=O)cn(-c5ccc6c(c5)CCC6)c4n3)cc2)CC1", 87.3),
]

[a] NC(=O)c1cn(-c2ccc3c(c2)CCC3)c2nc(Nc3ccc(CCN4CCOCC4)cc3)ncc2c1=O
[b] CN(C)Cc1ccc(Nc2ncc3c(=O)c(C(N)=O)cn(-c4ccc5c(c4)CCC5)c3n2)cc1
Prompt: Which has the higher remaining at 10 min, a or b ? Kindly state the label of the option you pick.
Completion: a

====

Target: Platelet-derived growth factor receptor beta (Homo sapiens, UniProt P09619)
Sequence (P09619 whole entry): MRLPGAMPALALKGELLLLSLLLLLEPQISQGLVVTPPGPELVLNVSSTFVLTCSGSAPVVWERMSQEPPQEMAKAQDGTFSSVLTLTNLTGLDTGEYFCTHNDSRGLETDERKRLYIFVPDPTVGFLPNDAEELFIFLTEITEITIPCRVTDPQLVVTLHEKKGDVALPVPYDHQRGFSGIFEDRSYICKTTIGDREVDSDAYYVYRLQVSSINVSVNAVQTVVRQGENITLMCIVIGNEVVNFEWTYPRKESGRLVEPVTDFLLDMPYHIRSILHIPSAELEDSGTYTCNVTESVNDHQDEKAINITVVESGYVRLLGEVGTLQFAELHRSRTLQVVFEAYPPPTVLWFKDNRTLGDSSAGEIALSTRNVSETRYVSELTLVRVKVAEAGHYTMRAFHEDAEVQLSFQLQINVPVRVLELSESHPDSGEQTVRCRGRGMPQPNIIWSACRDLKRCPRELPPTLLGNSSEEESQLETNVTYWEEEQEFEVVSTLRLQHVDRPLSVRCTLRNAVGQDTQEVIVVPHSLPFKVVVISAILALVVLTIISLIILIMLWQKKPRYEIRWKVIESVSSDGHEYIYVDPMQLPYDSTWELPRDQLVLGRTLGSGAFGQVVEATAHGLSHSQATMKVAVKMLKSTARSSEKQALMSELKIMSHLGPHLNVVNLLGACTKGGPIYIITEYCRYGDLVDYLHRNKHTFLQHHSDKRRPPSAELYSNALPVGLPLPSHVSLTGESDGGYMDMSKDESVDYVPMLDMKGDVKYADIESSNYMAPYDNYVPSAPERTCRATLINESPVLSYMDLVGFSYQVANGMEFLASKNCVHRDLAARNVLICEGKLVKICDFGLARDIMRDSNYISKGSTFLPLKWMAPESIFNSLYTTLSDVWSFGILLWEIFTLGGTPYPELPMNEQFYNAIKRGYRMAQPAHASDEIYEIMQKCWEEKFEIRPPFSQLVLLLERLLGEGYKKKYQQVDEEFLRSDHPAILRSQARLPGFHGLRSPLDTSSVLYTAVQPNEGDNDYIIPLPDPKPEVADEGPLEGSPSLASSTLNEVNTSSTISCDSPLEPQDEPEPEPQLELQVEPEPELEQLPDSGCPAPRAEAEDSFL
pIC50: −log10 of the molar value.
VALUE_KIND: pIC50

Fill in: Platelet-derived growth factor receptor beta (Homo sapiens, UniProt P09619) pIC50 for CN1CCN(Cc2ccc(Nc3ncc4c(=O)c(C(N)=O)cn(-c5ccc6c(c5)CCC6)c4n3)cc2)CC1 = < 5.70
